Below, each entry is listed alongside its reported MIC Broth microdilution M. fortuitum ATCC 6841.
# Tested on: Mycobacterium fortuitum ATCC 6841
# ASSAY PROTOCOL: MIC broth microdilution, M. fortuitum ATCC 6841
# EXPERIMENTAL PARAMETERS: 72 hours at 35° C., CAMHB
Give just the numeric value; µg/mL need not be written.

Study these solved cases before continuing.
INSERT INTO results (molecule, assay_result) VALUES
  ('CC(N)C(=O)N(C)C(C)C(NC(=O)C(Cc1ccc(I)cc1)NC(=O)NC(Cc1ccc(O)cc1)C(=O)O)C(=O)NCC1CC(O)C(n2ccc(=O)[nH]c2=O)O1 (stereo not drawn) [Compound 134]', 32),
  ('CC(N)C(=O)N(C)C(C)C(NC(=O)C(Cc1ccc(-c2ccccc2)cc1)NC(=O)NC(Cc1c[nH]c2ccccc12)C(=O)O)C(=O)NCC1CC(O)C(n2ccc(=O)[nH]c2=O)O1 (stereo not drawn) [Compound 155]', 32);

Let's switch to this molecule now.
Input line: For the record C[C@H](N)C(=O)N(C)[C@@H](C)[C@H](NC(=O)[C@H](Cc1ccccc1)NC(=O)N[C@@H](Cc1ccc(O)cc1)C(=O)O)C(=O)NC[C@H]1C[C@@H](O)[C@H](n2ccc(=O)[nH]c2=O)O1 [Compound 160] , what value of MIC Broth microdilution M. fortuitum ATCC 6841 is listed for Mycobacterium fortuitum ATCC 6841?
Output line: 128

###

# System: Pasteurella multocida pm002
# ASSAY PROTOCOL: MIC broth microdilution, P. multocida pm002 (wild type)
# Type: cell-based
PROPERTY MEASURED: MIC (μg/ml) Broth microdilution (µg/mL)
Give just the numeric value; µg/mL need not be written.

Study these solved cases before continuing.
INSERT INTO results (molecule, system, property_measured, units_of_measure, assay_result) VALUES
  ('C[C@H](N)C(=O)N(C)[C@@H](C)[C@H](NC(=O)[C@H](Cc1ccccc1)NC(=O)N[C@@H](Cc1c[nH]cn1)C(=O)O)C(=O)NC[C@H]1C[C@@H](O)[C@H](n2ccc(=O)[nH]c2=O)O1', 'Pasteurella multocida pm002', 'MIC (μg/ml) Broth microdilution', 'µg/mL', 256),
  ('CC(C)C[C@H](NC(=O)N[C@@H](Cc1c[nH]c2ccccc12)C(=O)O)C(=O)N[C@H](C(=O)NC[C@H]1C[C@@H](O)[C@H](n2ccc(=O)[nH]c2=O)O1)[C@H](C)N(C)C(=O)CN', 'Pasteurella multocida pm002', 'MIC (μg/ml) Broth microdilution', 'µg/mL', 128),
  ('CC(C(NC(=O)C(Cc1ccccc1)NC(=O)NC(Cc1ccc(O)cc1)C(=O)O)C(=O)NCC1CC(O)C(n2ccc(=O)[nH]c2=O)O1)N(C)C(=O)CN (stereo not shown)', 'Pasteurella multocida pm002', 'MIC (μg/ml) Broth microdilution', 'µg/mL', 256),
  ('CSCCC(NC(=O)NC(Cc1c[nH]c2ccccc12)C(=O)O)C(=O)NC(C(=O)NCC1CC(O)C(n2ccc(=O)[nH]c2=O)O1)C(C)N(C)C(=O)CN (stereo not shown)', 'Pasteurella multocida pm002', 'MIC (μg/ml) Broth microdilution', 'µg/mL', 128),
  ('CC(N)C(=O)N(C)C(C)C(NC(=O)C(Cc1ccc(Cl)cc1)NC(=O)NC(Cc1ccc(O)cc1)C(=O)O)C(=O)NCC1CC(O)C(n2ccc(=O)[nH]c2=O)O1 (stereo not shown)', 'Pasteurella multocida pm002', 'MIC (μg/ml) Broth microdilution', 'µg/mL', 512);

Let's switch to this molecule now.
Input line: For the record CC(C(NC(=O)C(Cc1ccccc1)NC(=O)NC(Cc1c[nH]c2ccccc12)C(=O)O)C(=O)NCC1CC(O)C(n2ccc(=O)[nH]c2=O)O1)N(C)C(=O)C(N)Cc1ccccc1 (stereo not shown) , what value of MIC (μg/ml) Broth microdilution is listed for Pasteurella multocida pm002?
Output line: 256

###

# Tested on: Pseudomonas aeruginosa PAM 1135
# ASSAY PROTOCOL: MIC broth microdilution, P. aeruginosa PAM 1135 (high level UPA resistance)
# Assay type: cell-based
# EXPERIMENTAL PARAMETERS: P. aeruginosa PAM 1135 UPA1^r
Below, each entry is listed alongside its reported MIC (μg/ml) Broth microdilution.

INSERT INTO measurements (molecule, property_measured, assay_result) VALUES
  ('C[C@H](N)C(=O)N(C)[C@@H](C)[C@H](NC(=O)[C@H](Cc1ccccc1F)NC(=O)N[C@@H](Cc1ccc(O)cc1)C(=O)O)C(=O)NC[C@H]1C[C@@H](O)[C@H](n2ccc(=O)[nH]c2=O)O1', 'MIC (μg/ml) Broth microdilution', '>512 µg/mL');

Input line: For the molecule shown here, CC(NC(=O)NC(Cc1c[nH]c2ccccc12)C(=O)O)C(=O)NC(C(=O)NCC1CC(O)C(n2ccc(=O)[nH]c2=O)O1)C(C)N(C)C(=O)CN (stereo not shown) , give the reported MIC (μg/ml) Broth microdilution.
Output line: >512 µg/mL

Input line: For the molecule shown here, CC(C(NC(=O)C(Cc1ccc(F)cc1)NC(=O)NC(Cc1ccc(O)cc1)C(=O)O)C(=O)NCC1CC(O)C(n2ccc(=O)[nH]c2=O)O1)N(C)C(=O)C(N)Cc1ccc(F)cc1 (stereo not shown) , give the reported MIC (μg/ml) Broth microdilution.
Output line: 256 µg/mL

Input line: For the molecule shown here, CC(C(NC(=O)C(Cc1ccc(F)cc1)NC(=O)NC(Cc1ccc(O)cc1)C(=O)O)C(=O)NCC1CC(O)C(n2ccc(=O)[nH]c2=O)O1)N(C)C(=O)CCCCN (stereo not shown) , give the reported MIC (μg/ml) Broth microdilution.
Output line: >512 µg/mL

###

# Test system: Pseudomonas aeruginosa PAM 1135
# ASSAY PROTOCOL: MIC broth microdilution, P. aeruginosa PAM 1135 (high level UPA resistance)
# Type: cell-based
# EXPERIMENTAL PARAMETERS: P. aeruginosa PAM 1135 UPA1^r
Below, each entry is listed alongside its reported MIC (μg/ml) Broth microdilution.

Study these solved cases before continuing.
INSERT INTO results (compound, system, property_measured, assay_result) VALUES
  ('CC(N)C(=O)N(C)C(C)C(NC(=O)C(Cc1ccc(C(F)(F)F)cc1)NC(=O)NC(Cc1c[nH]c2ccccc12)C(=O)O)C(=O)NCC1CC(O)C(n2ccc(=O)[nH]c2=O)O1 (centres unmarked) [Compound 146]', 'Pseudomonas aeruginosa PAM 1135', 'MIC (μg/ml) Broth microdilution', '>512 µg/mL'),
  ('CC(C(NC(=O)C(Cc1ccccc1)NC(=O)NC(Cc1c[nH]c2ccccc12)C(=O)O)C(=O)NCC1CC(O)C(n2ccc(=O)[nH]c2=O)O1)N(C)C(=O)C(N)Cc1ccc(O)cc1 (centres unmarked) [Compound 163]', 'Pseudomonas aeruginosa PAM 1135', 'MIC (μg/ml) Broth microdilution', '256 µg/mL'),
  ('C[C@H](N)C(=O)N(C)[C@@H](C)[C@H](NC(=O)[C@H](Cc1ccccc1)NC(=O)N[C@@H](Cc1c[nH]cn1)C(=O)O)C(=O)NC[C@H]1C[C@@H](O)[C@H](n2ccc(=O)[nH]c2=O)O1 [Compound 149]', 'Pseudomonas aeruginosa PAM 1135', 'MIC (μg/ml) Broth microdilution', '>512 µg/mL'),
  ('CC(N)C(=O)N(C)C(C)C(NC(=O)C(CCc1ccccc1)NC(=O)NC(Cc1ccc(O)cc1)C(=O)O)C(=O)NCC1CC(O)C(n2ccc(=O)[nH]c2=O)O1 (centres unmarked) [Compound 137]', 'Pseudomonas aeruginosa PAM 1135', 'MIC (μg/ml) Broth microdilution', '>512 µg/mL'),
  ('CC(N)C(=O)N(C)C(C)C(NC(=O)C(Cc1ccc(I)cc1)NC(=O)NC(Cc1ccc(O)cc1)C(=O)O)C(=O)NCC1CC(O)C(n2ccc(=O)[nH]c2=O)O1 (centres unmarked) [Compound 134]', 'Pseudomonas aeruginosa PAM 1135', 'MIC (μg/ml) Broth microdilution', '>512 µg/mL'),
  ('CC(C)[C@H](NC(=O)N[C@@H](Cc1c[nH]c2ccccc12)C(=O)O)C(=O)N[C@H](C(=O)NC[C@H]1C[C@@H](O)[C@H](n2ccc(=O)[nH]c2=O)O1)[C@H](C)N(C)C(=O)[C@H](C)N [Compound 169]', 'Pseudomonas aeruginosa PAM 1135', 'MIC (μg/ml) Broth microdilution', '>512 µg/mL');

Let's switch to this compound now.
Input line: For the record C[C@H](N)C(=O)N(C)[C@@H](C)[C@H](NC(=O)[C@H](C)NC(=O)N[C@@H](Cc1c[nH]c2ccccc12)C(=O)O)C(=O)NC[C@@H]1C[C@@H](O)[C@@H](n2ccc(=O)[nH]c2=O)O1 [Compound 172] , what value of MIC (μg/ml) Broth microdilution is listed for Pseudomonas aeruginosa PAM 1135?
Output line: >512 µg/mL
